System: Macrophage
Assay: Inhibition of FMS-induced proliferation of bone marrow derived human macrophages
Format: functional, cell-based
Readout label: pIC50
Scale: negative log10 of molar concentration, which is what pIC50 denotes.

>  <Smiles string>
CN1CCN(c2ccc(NC(=O)c3cc(C#N)c[nH]3)c(N3CCCCC3)c2)CC1

>  <Readout label>
pIC50

>  <Experimental result>
8.70

$$$$
>  <Smiles string>
CN1CCN(c2ccc(NC(=O)c3ccc(C#N)o3)c(N3CCOCC3)c2)CC1

>  <Readout label>
pIC50

>  <Experimental result>
5.55

$$$$
>  <Smiles string>
CN1CCN(c2ccc(NC(=O)c3ccc(C#N)o3)c(N3CCCCC3)c2)CC1

>  <Readout label>
pIC50

>  <Experimental result>
8.30

$$$$

Please look at the following molecule next.
Query block: Item `CC1CCN(c2cc(N3CCN(C)CC3)ccc2NC(=O)c2ccc(C#N)o2)CC1` has what recorded pIC50?
Result block: 8.70

----------
Listing of recorded half-life by entry.
Test: Half life in CD1 mouse at 2 mg/kg, iv and 10 mg/kg, po
Assay type: ADME, organism-based
Conditions: in vivo
Record the value in min, omitting the unit from your answer.

Field: example entries. Status: answers known.
>  <Smiles string>
CN1CCN(c2ccc(NC(=O)c3ccc(C#N)o3)c(N3CCCCC3)c2)CC1

>  <Unit abbreviation>
min

>  <half-life>
62

$$$$
>  <Smiles string>
CC1CCN(c2cc(N3CCN(C)CC3)ccc2NC(=O)c2cc(C#N)c[nH]2)CC1

>  <Unit abbreviation>
min

>  <half-life>
244

$$$$

Next:
Query block: Recorded half-life for `CC1CCN(c2cc(N3CCN(C)CC3)ccc2NC(=O)c2ccc(C#N)o2)CC1` , please?
Result block: 98

----------
Reported log10 IC50 is given for each of the following compounds.
Target: Macrophage colony-stimulating factor 1 receptor (Homo sapiens)
Sequence (P07333 whole entry): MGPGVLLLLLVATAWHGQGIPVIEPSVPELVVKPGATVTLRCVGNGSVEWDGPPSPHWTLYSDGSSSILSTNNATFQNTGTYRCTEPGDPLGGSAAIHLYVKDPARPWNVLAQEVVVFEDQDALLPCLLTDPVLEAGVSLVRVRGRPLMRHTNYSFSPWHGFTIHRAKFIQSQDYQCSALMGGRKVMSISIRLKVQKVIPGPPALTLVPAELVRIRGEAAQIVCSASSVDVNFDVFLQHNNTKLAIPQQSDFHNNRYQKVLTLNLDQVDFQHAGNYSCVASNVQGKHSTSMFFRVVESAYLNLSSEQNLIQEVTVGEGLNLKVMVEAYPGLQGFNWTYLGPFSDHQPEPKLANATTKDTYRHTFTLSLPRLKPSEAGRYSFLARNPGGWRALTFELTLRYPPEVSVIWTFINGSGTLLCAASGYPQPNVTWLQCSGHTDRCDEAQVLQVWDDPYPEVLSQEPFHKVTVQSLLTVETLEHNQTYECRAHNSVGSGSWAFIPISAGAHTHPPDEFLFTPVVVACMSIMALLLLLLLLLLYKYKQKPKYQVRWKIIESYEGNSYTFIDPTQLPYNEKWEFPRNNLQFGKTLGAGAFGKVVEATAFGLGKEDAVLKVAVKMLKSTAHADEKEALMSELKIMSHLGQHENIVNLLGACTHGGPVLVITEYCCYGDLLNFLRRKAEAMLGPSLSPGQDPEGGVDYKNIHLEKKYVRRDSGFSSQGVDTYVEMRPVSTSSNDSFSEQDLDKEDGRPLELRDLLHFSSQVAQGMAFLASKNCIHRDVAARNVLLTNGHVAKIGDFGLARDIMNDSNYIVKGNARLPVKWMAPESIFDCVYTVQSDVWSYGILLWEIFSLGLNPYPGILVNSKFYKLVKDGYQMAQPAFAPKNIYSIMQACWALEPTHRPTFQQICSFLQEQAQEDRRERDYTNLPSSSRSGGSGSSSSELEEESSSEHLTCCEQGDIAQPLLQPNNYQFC
Note the log scale: values are log10 of IC50 expressed in µM.

>  <Smiles string>
CCN(C)CCCc1ccc(NC(=O)c2ccc(C#N)o2)c(N2CCCCC2)c1

>  <log10 IC50>
-1.28

$$$$

Query block: Lab request: please report log10 IC50 under test system Macrophage colony-stimulating factor 1 receptor (Homo sapiens) for `CN(c1ccc(NC(=O)c2ccc(C#N)o2)c(N2CCCCC2)c1)S(C)(=O)=O`
Result block: -1.60

Query block: Param item: `CC1CCN(c2cc(N3CCN(C)CC3)cnc2NC(=O)c2ccc(C#N)o2)CC1`
Result block: -0.14

Query block: Same for `CC1CCN(c2cc(N3CCNCC3)ccc2NC(=O)c2cc(C#N)c[nH]2)CC1`
Result block: -3.00

Query block: Entry `CC1CCN(c2cc(N3CCOCC3)ccc2NC(=O)c2ccc(C#N)o2)CC1` please
Result block: -1.96

----------
Target: Macrophage colony-stimulating factor 1 receptor (Homo sapiens)
Readout label: pIC50
Please treat pIC50 as minus the base-10 logarithm of the molar concentration.

Known pIC50 results, listed for orientation:
>  <Smiles string>
CC1CCN(c2nc(N3CCN(C)CC3)ccc2NC(=O)c2ccc(C#N)o2)CC1

>  <pIC50>
8.00

$$$$
>  <Smiles string>
N#Cc1ccc(C(=O)Nc2ccc(N3CCS(=O)(=O)CC3)cc2N2CCCCC2)o1

>  <pIC50>
9.15

$$$$
>  <Smiles string>
CC(=O)N1CCN(c2ccc(NC(=O)c3cc(C#N)c[nH]3)c(N3CCC(C)CC3)c2)CC1

>  <pIC50>
9.15

$$$$

Query block: Given the entry `N#Cc1ccc(C(=O)Nc2ccc(F)cc2N2CCCCC2)o1` , report its measured pIC50.
Result block: 7.20

Query block: Lookup `CN1CCN(c2ccc(NC(=O)c3ccc(C#N)o3)c(N3CCOCC3)c2)CC1`
Result block: 7.10
